Tgt: pSTAT3 (pY705-STAT3) (Homo sapiens, UniProt P40763)
Construct: host or cells: cryopreserved PBMC
Sequence (P40763 whole entry): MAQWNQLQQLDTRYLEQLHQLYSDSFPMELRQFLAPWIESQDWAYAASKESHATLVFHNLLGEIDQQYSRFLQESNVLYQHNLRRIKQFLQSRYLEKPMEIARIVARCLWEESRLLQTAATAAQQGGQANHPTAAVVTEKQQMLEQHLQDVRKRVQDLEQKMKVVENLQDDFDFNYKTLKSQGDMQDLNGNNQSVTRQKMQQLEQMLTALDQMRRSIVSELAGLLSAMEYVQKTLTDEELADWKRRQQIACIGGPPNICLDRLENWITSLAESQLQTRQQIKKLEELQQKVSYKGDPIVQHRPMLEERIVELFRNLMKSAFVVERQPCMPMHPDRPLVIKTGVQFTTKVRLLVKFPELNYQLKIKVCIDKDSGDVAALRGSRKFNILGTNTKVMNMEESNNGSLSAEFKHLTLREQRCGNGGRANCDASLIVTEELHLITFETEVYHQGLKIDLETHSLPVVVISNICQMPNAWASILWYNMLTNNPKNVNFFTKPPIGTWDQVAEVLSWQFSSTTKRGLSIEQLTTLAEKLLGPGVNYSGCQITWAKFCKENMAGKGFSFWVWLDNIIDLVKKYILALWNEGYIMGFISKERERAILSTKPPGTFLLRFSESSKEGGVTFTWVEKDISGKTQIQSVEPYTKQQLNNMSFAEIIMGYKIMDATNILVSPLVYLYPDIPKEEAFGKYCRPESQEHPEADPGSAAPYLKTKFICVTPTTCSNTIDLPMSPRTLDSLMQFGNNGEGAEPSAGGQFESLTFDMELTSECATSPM
Test summary: MSD-pSTAT-PBMC Assay (pSTAT3, IL-6 stimulated)
Type: cell-based
Condition description: PBMC, compound 3 hrs, then 10 ng/mL IL-6 for 10 min; MSD pY705-STAT3; read-out: pSTAT3
pIC50: −log10 of the molar value.
The molecules listed here are annotated with their pIC50.

Answered cases to consult:
Molecule	pIC50
CC(C)(C)C(=O)OCOP(=O)(OCOC(=O)C(C)(C)C)C(F)(F)c1ccc2sc(C(=O)N[C@H]3C[C@@H]4C[C@@H]4C[C@H]4CC[C@@H](C(=O)N5CC6(CN(C(=O)Cc7ccccc7)C6)C5)N4C3=O)cc2c1	> 7.00
CCCOC(=O)[C@H](C)NP(=O)(Oc1ccccc1)C(F)c1ccc2sc(C(=O)N[C@H]3C[C@@H]4C[C@@H]4C[C@H]4CC[C@@H](C(=O)N5CC(c6cnccc6C)C5)N4C3=O)cc2c1 (some centres unmarked)	> 7.00
CCCOC(=O)[C@H](C)NP(=O)(Oc1ccccc1)C(F)c1ccc2sc(C(=O)N[C@H]3C[C@@H]4C[C@@H]4C[C@H]4CC[C@@H](C(=O)N5CC(c6ccon6)C5)N4C3=O)cc2c1 (some centres unmarked)	> 7.00
CCCOC(=O)[C@H](C)NP(=O)(Oc1ccccc1)C(F)c1ccc2sc(C(=O)N[C@H]3C[C@@H]4C[C@@H]4C[C@H]4CC[C@@H](C(=O)N5CC(c6ncccn6)C5)N4C3=O)cc2c1 (some centres unmarked)	6.00 to 7.00

The recorded pIC50 for CC(C)(CO)C(=O)OCOP(=O)(OCOC(=O)C(C)(C)CO)C(F)(F)c1ccc2sc(C(=O)N[C@H]3C[C@@H]4C[C@@H]4C[C@H]4CC[C@@H](C(=O)N5CC(C(=O)N6CCOCC6)C5)N4C3=O)cc2c1 is < 5.52
